- target or system: IRAK4 (Homo sapiens (Human), UniProt Q9NWZ3)
- Sequence (Q9NWZ3 whole entry): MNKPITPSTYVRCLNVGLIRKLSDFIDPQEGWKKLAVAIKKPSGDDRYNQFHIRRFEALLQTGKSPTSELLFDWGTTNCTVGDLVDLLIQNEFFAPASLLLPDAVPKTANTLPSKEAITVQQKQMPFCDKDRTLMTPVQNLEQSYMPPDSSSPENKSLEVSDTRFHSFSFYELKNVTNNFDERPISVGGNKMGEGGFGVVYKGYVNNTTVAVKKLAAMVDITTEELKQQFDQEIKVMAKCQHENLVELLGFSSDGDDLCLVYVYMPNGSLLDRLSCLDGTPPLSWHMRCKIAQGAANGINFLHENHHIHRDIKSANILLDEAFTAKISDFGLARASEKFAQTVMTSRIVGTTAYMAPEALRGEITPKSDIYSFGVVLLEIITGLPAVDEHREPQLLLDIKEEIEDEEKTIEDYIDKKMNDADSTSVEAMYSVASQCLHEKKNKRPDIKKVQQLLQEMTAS
- assay comment: IRAK4 enzymatic assay (ADP-Glo luminescence)
- condition context: human purified recombinant His-TEV-IRAK4 (1-460), ATP 2 μM, STK1-biotin peptide 300 nM
pIC50: −log10 of the molar value.

{"compound": "Cn1cc2c(n1)C(=O)NC/C=C\\CCCn1cc(cn1)-c1cccc(n1)C(=O)N2", "pIC50": "> 7.00"}
{"compound": "O=C1Nc2cn(C3CCN(CCO)CC3)nc2C(=O)NCCCCCCn2cc(cn2)-c2cccc1n2", "pIC50": "> 7.00"}
{"compound": "Cn1cc2c(n1)C(=O)NCCCC(O)C(O)Cn1cc(cn1)-c1cccc(n1)C(=O)N2 (stereo not drawn)", "pIC50": "> 7.00"}
{"compound": "O=C1Nc2cn(C3CCNCC3)nc2C(=O)NCCCCCCn2cc(cn2)-c2cccc1n2", "pIC50": "> 7.00"}
{"compound": "CN1CCCNC(=O)c2nn(C)cc2NC(=O)c2cccc(n2)-c2cnn(c2)CC1", "pIC50": "> 7.00"}
{"compound": "O=C1Nc2cn(C3CCOCC3)nc2C(=O)NCCCCCn2cc(cn2)-c2cccc1c2", "pIC50": "< 5.30"}
{"compound": "Cn1cc2c(n1)C(=O)NCCCCn1cc(cn1)-c1cccc(n1)C(=O)N2", "pIC50": "5.30 to 6.00"}
{"compound": "O=C1Nc2cn(C3CCOCC3)nc2C(=O)NCCCCCCn2cc(cn2)-c2cccc1c2", "pIC50": "> 7.00"}
{"compound": "O=C1Nc2cn(C3CCOCC3)nc2C(=O)NCCSCCCn2cc(cn2)-c2cccc1n2", "pIC50": "> 7.00"}
